- assay target: T1, fully glycosylated, monobiotinylated extracellular domain of human CD98hc produced in HEK 293E cells (human, UniProt P08195 111-529, N-linked glycosylation at Asn264, 280, 323 and 405 (UniProt P08195-2); single biotin on the N-terminal BAP)
- T1 construct: also called hCD98hcEDg; CD98hcEDg; not shown: N-terminal His6 tag and biotin acceptor peptide (BAP) from pDSG-BM-His6-BAP-hCD98hcEDg
- T1 sequence: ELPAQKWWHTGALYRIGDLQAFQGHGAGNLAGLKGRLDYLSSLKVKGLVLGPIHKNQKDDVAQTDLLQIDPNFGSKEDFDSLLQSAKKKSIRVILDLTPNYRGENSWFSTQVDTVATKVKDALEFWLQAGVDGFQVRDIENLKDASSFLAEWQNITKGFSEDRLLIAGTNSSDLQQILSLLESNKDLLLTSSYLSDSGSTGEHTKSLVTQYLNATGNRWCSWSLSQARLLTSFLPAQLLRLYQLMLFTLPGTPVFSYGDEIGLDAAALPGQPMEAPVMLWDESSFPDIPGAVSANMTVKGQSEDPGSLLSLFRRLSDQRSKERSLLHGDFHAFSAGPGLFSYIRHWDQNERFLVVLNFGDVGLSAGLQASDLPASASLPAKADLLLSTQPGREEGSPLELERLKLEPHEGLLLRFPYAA
- assay overview: SPR, biotinylated hCD98hcEDg captured on CAP chip
This section presents binders with their documented koff values.
State just the number; it will be interpreted in s⁻¹.

Input lipocalin variant D11vs (designed binder, P3D11 variant with Phe71Ser and Gly81Val; also called Anticalin D11vs; not shown: C-terminal His6-tag (plasmid pNGAL118) as for the other soluble lipocalin variants) QDSTSDLIPAPPLSKVPLQQNFQDNQFHGKWYVVGRAGNTGLREDKDPGKMFATIYELKEDKSYNVTYVWSGQKKCMYSIVTFVPGSQPGEFTLGNIKSAPGRTSWLVRVVSTNYNQHAMVFFKSVTQNREGFAITLYGRTKELTSELKENFIRFSKSLGLPENHIVFPVPIDQCIDG . Output koff: 2.2e-05

Input lipocalin variant P1E4 (designed binder, produced soluble in E. coli JM83, monomeric; also called Anticalin P1E4; not shown: C-terminal His6-tag (plasmid pNGAL118)) QDSTSDLIPAPPLSKVPLQQNFQDNQFHGKWYVVGIAGNSMLREDKDPFKMTATIYELKEDKSYNVTRVRFDDKKCLYRILTFVPGSQPGEFTLGNIKSRPGWTSWLVRVVSTNYNQHAMVFFKRVHQNRETFWITLYGRTKELTSELKENFIRFSKSLGLPENHIVFPVPIDQCIDG . Output koff: 0.09

Others:
Input lipocalin variant P3A12 (designed binder, produced soluble in E. coli JM83, monomeric; also called Anticalin P3A12; not shown: C-terminal His6-tag (plasmid pNGAL118)) QDSTSDLIPAPPLSKVPLQQNFQDNQFHGKWYVVGRAGNLGLREDKDPAKMFATIYELKEDKSYNVTYVWFDLKKCKYSIHTFVPGSQPGEFTLGKIKSGPGHTSWLVRVVSTNYNQHAMVFFKWVGQNRENFAITLYGRTKELTSELKENFIRFSKSLGLPENHIVFPVPIDQCIDG . Output koff: 0.0004

Input lipocalin variant P3D11 (designed binder, produced soluble in E. coli JM83, monomeric; also called Anticalin P3D11; not shown: C-terminal His6-tag (plasmid pNGAL118)) QDSTSDLIPAPPLSKVPLQQNFQDNQFHGKWYVVGRAGNTGLREDKDPGKMFATIYELKEDKSYNVTYVWFGQKKCMYSIGTFVPGSQPGEFTLGNIKSAPGRTSWLVRVVSTNYNQHAMVFFKSVTQNREGFAITLYGRTKELTSELKENFIRFSKSLGLPENHIVFPVPIDQCIDG . Output koff: 5e-05
